# System: P388 leukemia ip, CD2F1 mice, survival T/C
# assay.notes: NCI In Vivo Anticancer Drug Screen. Data for tumor model P388 Leukemia (intraperitoneal) in CD2F1 (CDF1) mice
# measurement.setup: endpoint: median survival time; dose: 200.0 mg/kg/injection; schedule: Q01DX005 (ip); vehicle: saline with Tween-80; higher = longer survival
Inconclusive results and toxic doses are left out.
measurement.kind: T/C

Prompt: Would you kindly share the measured T/C for COC1=NCc2ccccc2C2(OC)C(C)(C)C12C#N (centres undefined) ?
Completion: 101 % of control

Prompt: # repeat for CCCCCCCSc1ncnc2c1ncn2C(=O)Sc1ccccc1
Completion: 107 % of control

Prompt: # repeat for Cc1cc2c(cc1N)C(C)C1(CCC(=O)N2Cc2ccccc2)OCCO1 (centres undefined)
Completion: 93 % of control

Prompt: # repeat for Cc1cc(=O)c2c(ccc3cc4ccccc4cc32)[nH]1
Completion: 97 % of control

---

# Test system: P388 leukemia ip, CD2F1 mice, survival T/C
# assay.notes: NCI In Vivo Anticancer Drug Screen. Data for tumor model P388 Leukemia (intraperitoneal) in CD2F1 (CDF1) mice
# measurement.setup: endpoint: median survival time; dose: 25.0 mg/kg/injection; schedule: Q01DX009 (ip); vehicle: saline with Tween-80
Toxic doses and inconclusive results are not listed. Rule for the calls: active = survival T/C of 150% or more; inactive = T/C below 125% in these data.
// one of 1.0 for active, 0.0 for inactive, no free text

// below: answered compounds
* CC(C)C[NH-].CC(C)C[NH-].O.O.[Cl][Pt+2][Cl] | 1.0
* CC(=O)c1cc(I)c(O)c2ncccc12 | 0.0
* CCC1CN2CCc3cc(OC)c(OC)cc3C2CC12CO2 (centres undefined) | 0.0
* Nc1ccc(N=O)c(N)n1 | 0.0
* O=C1NNCc2c1oc1ccccc21 | 0.0
* CCOC(=O)CSc1ccc(C)cc1C(O)(C(F)(F)F)C(F)(F)F | 0.0
* CN(C)c1ccc(/C=[N+](\[O-])C(C)(C)CO)cc1 | 0.0
* Nc1nc2[nH]c(=O)cnc2c(=O)[nH]1 | 0.0

Shifting focus to the compound that follows.
Prompt: Check the results log: what was the call for CC1=CC(=O)C=CC1=Nc1ccc(N(C)C)cc1 ?
Completion: 0.0

---

# System: P388 leukemia ip, CD2F1 mice, survival T/C
# assay.notes: NCI In Vivo Anticancer Drug Screen. Data for tumor model P388 Leukemia (intraperitoneal) in CD2F1 (CDF1) mice
# measurement.setup: endpoint: median survival time; dose: 100.0 mg/kg/injection; schedule: Q01DX005 (ip); vehicle: saline; higher = longer survival
Toxic doses and inconclusive results are not listed.
measurement.kind: T/C

Prompt: Record lookup: for P388 leukemia ip, CD2F1 mice, survival T/C, what T/C belongs to NCC(N)CCC(=O)O (configuration not stated) ?
Completion: 105 % of control

Prompt: # repeat for COC(=O)C(O)(C(=O)OC)C1=C(N)C(=O)c2ccccc2C1=O
Completion: 123 % of control

Prompt: # repeat for CN1c2ccccc2C2=C(C(=O)CCS2)S1(=O)=O
Completion: 100 % of control

Prompt: # repeat for NCC(=O)NCC(=O)NC(CCCN=C(N)N)C(=O)O (configuration not stated)
Completion: 103 % of control

Prompt: # repeat for CC12CCC(C=C1N1CCOCC1)C(C)(C)O2 (configuration not stated)
Completion: 100 % of control

Prompt: # repeat for CN(C)C(P1(=O)OC(C)(C)C(C)(C)O1)P1(=O)OC(C)(C)C(C)(C)O1
Completion: 99 % of control

Prompt: # repeat for CCCCCCOC(=O)c1ccccc1OP(=O)(N(C)C)N(C)C
Completion: 101 % of control

---

Overview of recorded T/C for various compounds
# Test system: P388 leukemia ip, CD2F1 mice, survival T/C
# assay.notes: NCI In Vivo Anticancer Drug Screen. Data for tumor model P388 Leukemia (intraperitoneal) in CD2F1 (CDF1) mice
# measurement.setup: endpoint: median survival time; dose: 200.0 mg/kg/injection; schedule: Q04DX003 (ip); vehicle: saline; higher = longer survival
Inconclusive results and toxic doses are left out.

Below: 2 compounds and their reported T/C.
- O=C1CNC(=O)CN1: 91 % of control
- CC(C)(C#N)NNC(N)=S: 94 % of control

API: the following record is the query input.
Prompt: Would you kindly share the measured T/C for CC1(C)N=C(N)N=C(N)N1c1ccc(CCc2ccccc2)cc1 ?
Completion: 100 % of control

---

Overview of recorded T/C for various molecules
# Test system: P388 leukemia ip, CD2F1 mice, survival T/C
# assay.notes: NCI In Vivo Anticancer Drug Screen. Data for tumor model P388 Leukemia (intraperitoneal) in CD2F1 (CDF1) mice
# measurement.setup: endpoint: median survival time; dose: 12.5 mg/kg/injection; schedule: Q01DX009 (ip); vehicle: saline with Tween-80; higher = longer survival
Toxic doses and inconclusive results are not listed.

Prompt: Would you kindly share the measured T/C for NC(=O)/C=C/C(N)=O ?
Completion: 104 % of control

Prompt: # repeat for NC(N)=NS(=O)(=O)c1ccc([N+](=O)[O-])cc1
Completion: 103 % of control

Prompt: # repeat for CC(C)(C)NSc1nc2ccccc2s1
Completion: 109 % of control

Prompt: # repeat for C=CCn1cnc2c(=S)nc[nH]c21
Completion: 104 % of control

---

# Tested on: P388 leukemia ip, CD2F1 mice, survival T/C
# assay.notes: NCI In Vivo Anticancer Drug Screen. Data for tumor model P388 Leukemia (intraperitoneal) in CD2F1 (CDF1) mice
# measurement.setup: endpoint: median survival time; dose: 200.0 mg/kg/injection; schedule: Q01DX001 (ip); vehicle: saline; higher = longer survival
Toxic doses and inconclusive results are not listed.
measurement.kind: T/C

Below: 6 molecules and their reported T/C.
• O=C1CSCc2nc3ccccc3n21 = 104 % of control
• O=C1c2ccccc2-c2nc3ccccc3n21 = 108 % of control
• N#CCCCCC/C=C/CCCCCCC1C=CCC1 (centres undefined) = 100 % of control
• Cn1nnn(C)c1=NC#N = 107 % of control
• C=CC[S+]1CCSC1C(=O)OCC (centres undefined) = 112 % of control
• CCOC(=O)CNC(=O)OCCS(=O)CCOC(=O)NCC(=O)OCC = 93 % of control

Prompt: Would you kindly share the measured T/C for Nc1ncnc2nc(-c3ccc(OCc4ccccc4)cc3)[nH]c12 ?
Completion: 94 % of control

Prompt: # repeat for C/C=C/N1C(=O)C2C=CC1C(C(=O)OC)=C2C(=O)OC (centres undefined)
Completion: 99 % of control

Prompt: # repeat for C=C1CC2(CC(C(C)C)CCC2C)OC1=O (centres undefined)
Completion: 100 % of control

---

# Test system: P388 leukemia ip, CD2F1 mice, survival T/C
# assay.notes: NCI In Vivo Anticancer Drug Screen. Data for tumor model P388 Leukemia (intraperitoneal) in CD2F1 (CDF1) mice
# measurement.setup: endpoint: median survival time; dose: 100.0 mg/kg/injection; schedule: Q01DX005 (ip); vehicle: saline; higher = longer survival
Inconclusive results and toxic doses are left out.
Overview of recorded T/C for various molecules

Below: 3 molecules and their reported T/C.
• CCCCCN(CCNc1cc(OC)cc2cccnc12)C(C)CC (configuration not stated) = 100 % of control
• C=C(C)C(=O)N/C(N)=N\C(N)=O = 101 % of control
• CN(C)CCNC1c2ccccc2CCc2ccccc21 = 100 % of control

Prompt: Would you kindly share the measured T/C for O=C1C(Cl)=C(NCC2CCCN3CCCCC23)C(=O)c2ccccc21 (configuration not stated) ?
Completion: 117 % of control

Prompt: # repeat for COc1ccc(CNCCCSC)cc1
Completion: 110 % of control

Prompt: # repeat for Cc1ccc(/C=C/C(=O)C(C)CN(C)C)cc1C (configuration not stated)
Completion: 109 % of control

Prompt: # repeat for CCCCOc1ccc(C(=O)SCCCN=C(N)N)cc1
Completion: 97 % of control

Prompt: # repeat for CC(=O)Nc1ccc(C(=O)N/N=C/c2ccc(O)cc2)cc1
Completion: 102 % of control

---

# Test system: P388 leukemia ip, CD2F1 mice, survival T/C
# assay.notes: NCI In Vivo Anticancer Drug Screen. Data for tumor model P388 Leukemia (intraperitoneal) in CD2F1 (CDF1) mice
# measurement.setup: endpoint: median survival time; dose: 50.0 mg/kg/injection; schedule: Q01DX005 (ip); vehicle: saline; higher = longer survival
Toxic doses and inconclusive results are not listed. Peptide text beside a SMILES is read from it.
Overview of recorded T/C for various compounds

Prompt: Would you kindly share the measured T/C for CC1=N/C(=C\C=C\c2ccccc2)C(=O)O1 ?
Completion: 104 % of control

Prompt: # repeat for NCCCCC(NC(=O)C(N)Cc1cnc[nH]1)C(=O)O (stereo not drawn) (H-His-Lys-OH; configuration not given here)
Completion: 99 % of control

Prompt: # repeat for Cc1ccc(/C=C/C(=O)C(C)CN(C)C)cc1C (stereo not given)
Completion: 106 % of control

Prompt: # repeat for CN1C2CCC1CC(=NOS(=O)(=O)CC13CCC(CC1=O)C3)C2 (stereo not given)
Completion: 100 % of control

Prompt: # repeat for NC(=O)C1CCCN(C2OC(COP(=O)(O)OP(=O)(O)OCC3OC(n4nnc5c(=O)[nH]c(N)nc54)C(O)C3O)C(O)C2O)C1 (stereo not given)
Completion: 115 % of control
